Exercise: for every item that follows, state its recorded cell viability.
Test system: SEM cells
Assay: cell viability relative to DMSO control; higher = less cytotoxic
Settings: RPMI 5 mM glucose + 10% dialyzed FBS; 48 h; 1.71 µM
One number for each entry, in %.

Return reported cell viability values for all items listed beneath this line.
1. COC(=O)C/1=C(C)/N/C(=C(\C1C2=CC(=CC=C2)[N+]([O-])=O)C(=O)OCCCN3CCC(CC3)(C4=CC=CC=C4)C5=CC=CC=C5)C (centres undefined)
2. CC(C)n1cnc2c(NCCc3ccc(O)cc3)nc(-c3csc4ccccc34)nc21

Marked response:
112
122

Return reported cell viability values for all items listed beneath this line.
1. C[C@H](Cc1ccc(O)c(O)c1)[C@@H](C)Cc1ccc(O)c(O)c1
2. OCCN(CCO)c1nc(N2CCCCC2)c2nc(N(CCO)CCO)nc(N3CCCCC3)c2n1

Marked response:
1: 109; 2: 131

----------
Test system: P12-Ichikawa
Assay: cell viability relative to DMSO control; higher = less cytotoxic
Conditions: RPMI 5 mM glucose + 10% dialyzed FBS; 48 h; 0.000781 µM
METRIC: cell viability (%)
Give bare numbers, in %.

Return reported cell viability values for all items listed beneath this line.
1. Cc1cccc(-c2[nH]c(C(C)(C)C)nc2-c2ccc3c(c2)OCO3)n1
2. CC(C)Cn1cnc2c(N)nc3ccccc3c21
3. C[C@@H](N)C1CC[C@@H](CC1)C(=O)NC2=CC=NC=C2 (some centres undefined)
4. Cc1ccc([S+](=O)([O-])Nc2cc(Cl)ccc2C(=O)Nc2nc(-c3ccccc3)cs2)cc1
5. Oc1ccc(-c2ccc(-c3cc(Nc4cccc(CNC5CC5)c4)[nH]n3)cc2)c(O)c1

Marked response:
1. 102
2. 111
3. 110
4. 124
5. 101

----------
Exercise: for every item that follows, state its recorded cell viability.
Test system: P12-Ichikawa
Assay: cell viability relative to DMSO control; higher = less cytotoxic
Settings: RPMI 5 mM glucose + 10% FBS; 48 h; 15.4 µM
Numbers only, in %.

> print(dat)
                                     smiles          metric  test.value
1  NC[C@H]1O[C@H](O[C@H]2[C@H](O)[C@@H](O[C@H]3O[C@H](CO)[C@@H](O)[C@H](N)[C@H]3O)[C@H](N)C[C@@H]2N)[C@H](N)C[C@@H]1O  cell viability        98.5
2  Cc1cnc(Nc2ccc(CN3CCOCC3)cc2)nc1Nc1cccc([S+](=O)([O-])NC(C)(C)C)c1  cell viability        5.69
3  CC(C)(Sc1ccc(CCN(CCCCC2CCCCC2)C(=O)NC2CCCCC2)cc1)C(=O)O  cell viability          89

Return reported cell viability values for all items listed beneath this line.
1. COc1cc2c(Nc3ccc(Cl)c(Cl)c3F)ncnc2cc1OC[C@@H]1C[C@@H]2CN(C)C[C@@H]2C1
2. N#CC[C@H](C1CCCC1)n1cc(-c2ncnc3[nH]ccc23)cn1

Marked response:
1: 106; 2: 54.5

Return reported cell viability values for all items listed beneath this line.
1. COc1cc(OC)c(C(=O)CCCN2CCCC2)c(OC)c1
2. CC(C)(O)C(=O)Nc1ccc([N+](=O)[O-])c(C(F)(F)F)c1

Marked response:
111
29.5
